This collection of values is drawn from PubChem BioAssay AID179.

System: CEM cells HIV-1 protection, formazan growth assay
test.details: NCI AIDS Antiviral Assay
measurement.label: EC50

Reported EC50 for C1CCC(N2CSCSC2)CC1 was > 200 µM

Reported EC50 for COc1ccc(C(=O)CC(c2ccc(OC)c(OC)c2)c2c(O)c3ccccc3oc2=O)cc1OC (stereo not given) was > 200 µM

Reported EC50 for CCCCN(CCCC)CC(C(=O)Nc1ccc([N+](=O)[O-])cc1[N+](=O)[O-])/C(C)=N\NC(=S)NN (stereo not given) was > 52.5 µM

Reported EC50 for CS(=O)(=O)Nc1ccc2ccccc2c1 was > 200 µM

Reported EC50 for CSc1cc(Cl)c(C(=O)Nc2ccccc2)cc1S(=O)(=O)n1cc[nH]c1=O was > 200 µM

Reported EC50 for O=[N+]([O-])c1ccc(Cl)cc1C=NC12CC3CC(CC(C3)C1)C2 was > 200 µM

Reported EC50 for CC(=O)O[C@H]1[C@@H](OC2CCCC2(c2ccccc2)c2ccccc2)O[N+]([O-])=C[C@@]12COCc1cc3c(cc12)OCO3 (stereo not given in full) was > 200 µM

Reported EC50 for O=C1OC(CC(=O)c2ccccc2Cl)C(Cl)=C1Cl (stereo not given) was > 117 µM

Reported EC50 for O=S(CC(O)c1ccccc1)c1ccccc1 (stereo not given) was > 200 µM

Reported EC50 for N/C(=N\N=C\c1ccc2c(c1)OCO2)N/N=C\c1ccc2c(c1)OCO2 was > 200 µM
